System: Thoracic aorta
Assay: Vasorelaxant activity in C57 mouse thoracic aortic rings containing endothelium assessed as reduction in phenylephrine-induced contractions at 3 to 300 uM measured for 16 mins by myograph assay
Assay type: functional, tissue-based
Settings: dose 3-300 µM
Calls of active or inactive are those of the source. No cut-off for these calls is given here.
Use one of these outcomes when replying: active, inactive

Worked examples, 4 compounds total:
{"smiles-code": "COc1ccc2nc(N3CCCC3)c(N3CCN(C)CC3)nc2c1", "measured-on": "Thoracic aorta", "class-assignment": "active"}
{"smiles-code": "COc1ccc2nc(N3CCCC3)c(N3CCN(Cc4ccccc4)CC3)nc2c1", "measured-on": "Thoracic aorta", "class-assignment": "inactive"}
{"smiles-code": "COc1ccc2nc(NC#N)c(N3CCN(Cc4ccccc4)CC3)nc2c1", "measured-on": "Thoracic aorta", "class-assignment": "inactive"}
{"smiles-code": "COc1ccc2nc(Oc3ccc(-c4ccccc4)cc3)c(N3CCCC3)nc2c1", "measured-on": "Thoracic aorta", "class-assignment": "inactive"}

Lab note: next compound to report on.
Check the results log: what was the call for COc1ccc2nc(N3CCCC3)c(N3CCN(c4ccccc4)CC3)nc2c1 ? inactive

----------
System: Thoracic aorta
Assay: Vasorelaxant activity in C57 mouse thoracic aortic rings containing endothelium assessed as reduction in phenylephrine-induced contractions at 3 to 300 uM measured for 16 mins by myograph assay
Type: functional, tissue-based
Details: dose 3-300 µM
Active and inactive are the calls of the source. The rule behind the calls is not given here.
Use one of these outcomes when replying: active, inactive

Check the results log: what was the call for COc1ccc2nc(N3CCCC3)c(N3CCOCC3)nc2c1 ? inactive

----------
Test system: Thoracic aorta
Assay: Vasorelaxant activity in C57 mouse thoracic aortic rings containing endothelium assessed as reduction in phenylephrine-induced contractions at 3 to 300 uM measured for 16 mins by myograph assay
Type: functional, tissue-based
Conditions: dose 3-300 µM
Active and inactive are the calls of the source. No cut-off for these calls is given here.
reported-endpoint: Activity

{"smiles-code": "COC(=O)C1CCN(c2nc3cc(OC)ccc3nc2N2CCCC2)CC1", "measured-result": "Dose-dependent effect"}
{"smiles-code": "CCN1CCN(c2nc3cc(OC)ccc3nc2N2CCCC2)CC1", "measured-result": "Dose-dependent effect"}
{"smiles-code": "COc1ccc2nc(Oc3ccc(-c4ccc(C#N)cc4)cc3)c(N3CCN(C)CC3)nc2c1", "measured-result": "Active"}
{"smiles-code": "COc1ccc2nc(Oc3ccc(-c4ccc(C#N)cc4)cc3)c(N3CCN(c4ccccc4)CC3)nc2c1", "measured-result": "Active"}
